Value source: PubChem BioAssay (NCI)

system: MDA-MB-435 melanoma; experiment: NCI-60 one-dose screen, 48 h; conditions: 10 µM unless noted
This is part of a sample that, as a whole, favours compounds with a hit. Of some 83,000 tested, about 20% had one in any assay. Activity calls are given as the source filed them. How the source made its calls: active means growth percent below 10; inactive means the rest.
The reply should name one outcome from Y (active), N (inactive)

Example cases with answers are listed next.
molecule=N#Cc1c(-c2ccccc2)nc2c(c(-c3ccccc3)nn2-c2ccccc2)c1-c1ccc(N2CCOCC2)cc1 target_of_assay="MDA-MB-435 melanoma" group_label=N
molecule="CC1(C)O[C@H]2OC3CCC(=O)CC3(O)[C@H]2O1 (stereo partly drawn)" target_of_assay="MDA-MB-435 melanoma" group_label=N
molecule=N#Cc1c(Nc2ccc(F)cc2)n[nH]c1-c1cccs1 target_of_assay="MDA-MB-435 melanoma" group_label=N
molecule="Cc1c(N2CN3C[C@H](C)N4CN(c5c(C)n(C)n(-c6ccccc6)c5=O)CN5C[C@@H](C)N(C2)C3C54)c(=O)n(-c2ccccc2)n1C (stereo partly drawn)" target_of_assay="MDA-MB-435 melanoma" group_label=N
molecule=C#CCOc1ccc2ncnc(Nc3cccc(NC(=O)CCl)c3)c2c1 target_of_assay="MDA-MB-435 melanoma" group_label=N
molecule=COc1cc2ncnc(Nc3ccc(F)c(Cl)c3)c2cc1OCC(=O)N1CCN(c2ccc(F)cc2)CC1 target_of_assay="MDA-MB-435 melanoma" group_label=N

Ask | Query: recorded result category for Cc1c2cc[nH]c(=O)c2c(C)c2c1[nH]c1ccc(OC(=O)c3ccccc3)cc12 in this test
Reply | N

Ask | Called result for Cc1cccc(NC(=O)CSc2nc3ccc([N+](=O)[O-])cc3[nH]2)c1
Reply | N

Ask | Outcome logged for CN(CCC#N)c1ccc(/C=C2\NC(=O)NC2=O)cc1 in this assay:
Reply | N

Ask | What call does the record list for CC12CCC(/C(=C/NNc3ccc([N+](=O)[O-])cc3[N+](=O)[O-])C1=O)C2(C)C (stereo not drawn) ?
Reply | N

Ask | Which outcome was assigned to C=C(CN1CC=CCC1)[C@@H]1CC[C@]2(CO)CC[C@]3(C)[C@H](CC[C@@H]4[C@@]5(C)CC[C@H](O)C(C)(C)[C@@H]5CC[C@]43C)[C@@H]12 in this test?
Reply | N

Ask | Please state the recorded outcome for this molecule: CCc1cccc(Sc2cc(C(=O)N3Cc4ccc(OCCN(C)C)cc4C3)ccc2O)c1
Reply | N

Ask | Tell me the assay call for CCC/C(=N\NC(N)=O)C(OC)OC please.
Reply | N
